Reference source for all entries: patent US10179767B2

Molecular target: hNav1.7 (Homo sapiens, UniProt Q15858)
Construct: expressed in transfected cells
Sequence (Q15858 whole entry): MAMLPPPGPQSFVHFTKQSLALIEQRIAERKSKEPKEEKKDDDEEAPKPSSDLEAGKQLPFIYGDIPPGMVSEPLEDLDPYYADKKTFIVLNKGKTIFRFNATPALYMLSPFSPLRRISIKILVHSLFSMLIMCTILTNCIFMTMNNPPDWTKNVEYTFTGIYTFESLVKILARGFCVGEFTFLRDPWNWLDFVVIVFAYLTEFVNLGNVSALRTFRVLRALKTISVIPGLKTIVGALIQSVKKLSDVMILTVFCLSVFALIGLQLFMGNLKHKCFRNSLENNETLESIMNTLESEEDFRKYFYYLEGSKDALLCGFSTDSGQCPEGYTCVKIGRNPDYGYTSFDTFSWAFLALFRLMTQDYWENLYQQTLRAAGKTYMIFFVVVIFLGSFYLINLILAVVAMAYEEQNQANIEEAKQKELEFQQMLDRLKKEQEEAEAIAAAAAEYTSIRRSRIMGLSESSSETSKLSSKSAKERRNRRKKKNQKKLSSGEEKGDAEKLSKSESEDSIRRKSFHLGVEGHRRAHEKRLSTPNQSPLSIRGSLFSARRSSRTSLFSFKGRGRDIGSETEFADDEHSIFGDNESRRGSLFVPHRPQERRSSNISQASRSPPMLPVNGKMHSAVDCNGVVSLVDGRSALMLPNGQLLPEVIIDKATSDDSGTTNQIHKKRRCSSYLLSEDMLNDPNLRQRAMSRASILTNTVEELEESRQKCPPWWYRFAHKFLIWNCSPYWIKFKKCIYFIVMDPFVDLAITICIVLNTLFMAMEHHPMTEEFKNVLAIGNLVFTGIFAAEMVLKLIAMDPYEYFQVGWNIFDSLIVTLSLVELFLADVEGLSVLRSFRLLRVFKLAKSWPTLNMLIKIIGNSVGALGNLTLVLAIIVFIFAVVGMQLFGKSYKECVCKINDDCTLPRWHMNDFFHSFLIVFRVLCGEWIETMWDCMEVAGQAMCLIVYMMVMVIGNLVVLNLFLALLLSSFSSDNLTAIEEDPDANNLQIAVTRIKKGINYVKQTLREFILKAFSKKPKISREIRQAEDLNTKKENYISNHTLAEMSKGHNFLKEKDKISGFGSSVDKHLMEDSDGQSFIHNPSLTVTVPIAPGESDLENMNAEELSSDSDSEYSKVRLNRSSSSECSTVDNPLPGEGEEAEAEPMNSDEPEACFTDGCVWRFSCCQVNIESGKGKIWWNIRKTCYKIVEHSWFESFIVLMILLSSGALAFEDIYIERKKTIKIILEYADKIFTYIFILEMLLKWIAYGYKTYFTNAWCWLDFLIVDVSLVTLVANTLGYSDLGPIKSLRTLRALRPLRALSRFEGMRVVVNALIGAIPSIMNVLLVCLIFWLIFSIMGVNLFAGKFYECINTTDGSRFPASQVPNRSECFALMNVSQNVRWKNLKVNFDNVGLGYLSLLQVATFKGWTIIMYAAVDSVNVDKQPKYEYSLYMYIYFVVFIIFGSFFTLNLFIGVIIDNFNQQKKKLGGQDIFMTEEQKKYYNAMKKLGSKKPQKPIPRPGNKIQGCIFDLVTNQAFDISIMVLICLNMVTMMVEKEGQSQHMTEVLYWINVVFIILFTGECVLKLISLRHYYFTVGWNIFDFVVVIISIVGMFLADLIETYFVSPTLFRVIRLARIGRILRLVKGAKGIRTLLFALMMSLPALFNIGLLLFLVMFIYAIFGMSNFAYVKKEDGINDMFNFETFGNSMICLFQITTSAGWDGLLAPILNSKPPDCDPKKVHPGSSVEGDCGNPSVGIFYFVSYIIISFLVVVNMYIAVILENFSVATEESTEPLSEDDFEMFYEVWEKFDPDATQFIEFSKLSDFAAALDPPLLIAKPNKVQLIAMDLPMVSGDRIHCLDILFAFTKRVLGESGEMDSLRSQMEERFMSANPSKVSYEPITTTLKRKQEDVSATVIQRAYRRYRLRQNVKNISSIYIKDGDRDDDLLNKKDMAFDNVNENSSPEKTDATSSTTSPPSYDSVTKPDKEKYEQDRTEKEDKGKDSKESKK
Sequence (Q07699 19-218 partner): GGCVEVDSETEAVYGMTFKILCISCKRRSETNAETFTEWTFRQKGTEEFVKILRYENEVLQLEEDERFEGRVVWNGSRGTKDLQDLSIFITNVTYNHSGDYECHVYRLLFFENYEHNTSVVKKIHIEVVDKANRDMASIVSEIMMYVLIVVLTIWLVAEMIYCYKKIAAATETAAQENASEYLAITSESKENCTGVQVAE
Test: Tritiated sulfonamide binding to membranes from cells expressing hNav1.7 and the β1 subunit (Nav 1.7 ligand binding assay, competitive)
Conditions: competition with 100 pM [3H]compound, room temperature, 18 h
Description: Tritiated Sulfonamide Binding to Membranes Isolated from Cells that Heterologously Express hNav1.7 and the β1 Subunit Preparation of membranes containing recombinantly expressed sodium channels: Frozen recombinant cell pellets were thawed on ice and diluted to 4 times the cell pellet weight with ice cold 50 mM Tris HCl, pH 7.4 buffer. […] Protein concentrations were determined by Bradford Assay and the membranes were stored at −80° C. […]
pIC50: −log10 of the molar value. Counter-ions that a name gives are not always drawn.
# pIC50 listing for each entry below
measured attribute: pIC50

1. C[C@@H](c1ccc(F)cc1Cl)N1CCC(F)(COc2cc(F)c(C(=O)NS(C)(=O)=O)cc2C2CC2)CC1 (single isomer, unassigned) [Example 18]
8.00
2. C[C@@H](c1cc(Cl)cc(Cl)c1)N1CCC(COc2cc(F)c(C(=O)NS(=O)(=O)C3(F)CC3)cc2C2CC2)CC1 [Example 57, trifluoroacetate]
8.07
3. CS(=O)(=O)NC(=O)c1ccc(OCC2CCN(Cc3cc(C(F)(F)F)ccc3Cl)CC2)c(C2CC2)c1 [Example 60]
8.09
4. C[C@@H](c1cc(F)cc(Cl)c1)N1CCC(F)(COc2cc(F)c(C(=O)NS(C)(=O)=O)cc2C2CC2)CC1 (single isomer, unassigned) [Example 24]
8.39
5. CC(c1ncc(Cl)cc1Cl)N1CCC(COc2cc(F)c(C(=O)NS(C)(=O)=O)cc2C2CC2)CC1 (stereo not shown) [Example 44]
7.74
6. CC(c1cc(C(F)(F)F)cc(C2CC2)n1)N1CCC(COc2cc(F)c(C(=O)NS(=O)(=O)C3CC3)cc2C2CC2)CC1 (stereo not shown) [Example 51]
7.96
7. CC(C)(C#N)[C@@H](c1cc(Cl)cc(Cl)c1)N1CCC(COc2cc(F)c(C(=O)NS(C)(=O)=O)cc2C2CC2)CC1 (single isomer, unassigned) [Example 12]
8.41
8. CC(c1cc(Cl)cc(C2CC2)n1)N1CCC(COc2cc(F)c(C(=O)NS(C)(=O)=O)cc2C2CC2)CC1 (stereo not shown) [Example 46]
7.92
9. CS(=O)(=O)NC(=O)c1cc(C2CC2)c(OCC2(F)CCN(Cc3cc(C(F)(F)F)cc(C4CC4)n3)CC2)cc1F [Example 43]
8.01
10. CCS(=O)(=O)NC(=O)c1cc(C2CC2)c(OCC2CCN([C@@H](C)c3cc(Cl)cc(Cl)c3F)CC2)cc1F (single isomer, unassigned) [Example 32]
8.29
11. C[C@@H](c1ccc(Cl)c(Cl)c1)N1CCC(F)(COc2cc(F)c(C(=O)NS(C)(=O)=O)cc2C2CC2)CC1 (single isomer, unassigned) [Example 22]
8.25
12. CCS(=O)(=O)NC(=O)c1cc(C2CC2)c(OCC2CCN(Cc3cc(Cl)cc(Cl)c3OC)CC2)cc1F [Example 13]
8.39
13. CC(C)Oc1ncc(CN2CCC(F)(COc3cc(F)c(C(=O)NS(C)(=O)=O)cc3C3CC3)CC2)cc1Cl [Example 55]
8.25

====

target: hNav1.7 (Homo sapiens, UniProt Q15858); assay: Tritiated sulfonamide binding to membranes from cells expressing hNav1.7 and the β1 subunit (Nav 1.7 ligand binding assay, competitive); settings: competition with 100 pM [3H]compound, room temperature, 18 h
measured attribute: IC50 (nM)

1) C[C@H](c1ccc(Cl)c(F)c1)N1CCC(COc2cc(F)c(C(=O)NS(C)(=O)=O)cc2C2CC2)CC1 (single isomer, unassigned)
4.6
2) C[C@H](c1cc(F)cc(Cl)c1)N1CCC(F)(COc2cc(F)c(C(=O)NS(C)(=O)=O)cc2C2CC2)CC1 (single isomer, unassigned)
2
3) CS(=O)(=O)NC(=O)c1cc(C2CC2)c(OCC2CCN(Cc3cc(Cl)cc(C4CC4)n3)CC2)cc1F
11
4) CS(=O)(=O)NC(=O)c1cc(C2CC2)c(OCC2CCN(Cc3cc(C(F)(F)F)cc(Cl)c3C#N)CC2)cc1F
4.5
5) CC(c1cc(Cl)cc(Cl)c1)N1CCC2(CC1)CC(Oc1cc(F)c(C(=O)NS(C)(=O)=O)cc1C1CC1)C2 (stereo not drawn)
9
6) CS(=O)(=O)NC(=O)c1cc(C2CC2)c(OCC2CCN([C@@H](c3cc(Cl)cc(Cl)c3)C3COC3)CC2)cc1F (single isomer, unassigned)
8.2
